Readings of IC50 for the listed compounds
target: Recombinant human HSD17B13 enzyme (Homo sapiens, UniProt Q7Z5P4); assay: HSD17b13 NAD(P)H-Glo biochemical assay; settings: 50 uM estradiol, 1 mM NAD+, NAD(P)H-Glo luminescence; read-out: HSD17β13 IC50

**Q:** // output IC50; input CN(C)C(=O)N1CCN(c2ncc3c(-c4cc(C(F)(F)F)c(F)c(O)c4F)nn(C)c3n2)CC12CCC2 ; system Recombinant human HSD17B13 enzyme (Homo sapiens, UniProt Q7Z5P4)
**A:** < 0.1 µM

**Q:** Enter recorded IC50 with Recombinant human HSD17B13 enzyme (Homo sapiens, UniProt Q7Z5P4) for CC(C)N1CCN(c2cc3c(cn2)c(-c2cc(C(F)(F)F)c(F)c(O)c2F)nn3C)CC1=O here.
**A:** < 0.1 µM

**Q:** Give IC50 only, for Cc1c(N(C)C2CCOCC2)ncc2c(-c3cc(C(F)(F)F)c(F)c(O)c3F)nn(C)c12 , using Recombinant human HSD17B13 enzyme (Homo sapiens, UniProt Q7Z5P4) data.
**A:** 0.1 to 1 µM

Please turn your attention to the following entry.
**Q:** Tell me IC50 of Cn1nc(-c2cc(C(F)(F)F)c(F)c(O)c2F)c2cnc(N3CCOCC3CC(=O)O)nc21 (stereo not shown) when tested on Recombinant human HSD17B13 enzyme (Homo sapiens, UniProt Q7Z5P4).
**A:** 0.1 to 1 µM

----------
Readings of pIC50 for the listed compounds
Target: Recombinant human HSD17B13 enzyme (Homo sapiens, UniProt Q7Z5P4)
Sequence (Q7Z5P4 20-300): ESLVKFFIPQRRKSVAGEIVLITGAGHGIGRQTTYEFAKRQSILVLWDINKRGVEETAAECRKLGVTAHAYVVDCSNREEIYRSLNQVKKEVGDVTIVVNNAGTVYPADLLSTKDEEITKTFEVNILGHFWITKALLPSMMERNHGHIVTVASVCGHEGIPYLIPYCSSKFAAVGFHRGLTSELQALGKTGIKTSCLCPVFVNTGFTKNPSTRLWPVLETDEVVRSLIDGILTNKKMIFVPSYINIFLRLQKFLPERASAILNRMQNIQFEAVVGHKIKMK
Test: HSD17b13 NAD(P)H-Glo biochemical assay
Details: 50 uM estradiol, 1 mM NAD+, NAD(P)H-Glo luminescence; read-out: HSD17β13 IC50
pIC50: −log10 of the molar value.

Known pIC50 results, listed for orientation:
**Q:** Quote pIC50 with test system Recombinant human HSD17B13 enzyme (Homo sapiens, UniProt Q7Z5P4) for CS(=O)(=O)N1CCN(c2ccc3nc(-c4cc(O)cc(C(F)(F)F)c4)oc3c2)CC1
**A:** 6.00 to 7.00

**Q:** Please tell me the measured pIC50 for CN1CCN(c2cc3c(cn2)c(-c2cc(C(F)(F)F)c(F)c(O)c2F)nn3C)CC1=O ; system: Recombinant human HSD17B13 enzyme (Homo sapiens, UniProt Q7Z5P4).
**A:** > 7.00

**Q:** Fill: pIC50 (Recombinant human HSD17B13 enzyme (Homo sapiens, UniProt Q7Z5P4)) for this compound Cn1nc(-c2cc(C(F)(F)F)c(F)c(O)c2F)c2cc(F)c(N3CCCOCC34CC4)nc21
**A:** > 7.00

**Q:** Jot down pIC50 (Recombinant human HSD17B13 enzyme (Homo sapiens, UniProt Q7Z5P4)) of Cn1nc(-c2cc(C(F)(F)F)c(F)c(O)c2F)c2cnc(N3CCN(C4CC4)C(=O)C3)nc21 .
**A:** > 7.00

Further cases:
**Q:** GET pIC50 | system: Recombinant human HSD17B13 enzyme (Homo sapiens, UniProt Q7Z5P4) | item: Cn1nc(-c2cc(C(F)(F)F)cc(O)c2F)c2ccc(N3CCN(S(C)(=O)=O)CC3)cc21
**A:** 4.52 to 6.00

**Q:** Write pIC50 of Cn1nc(-c2cc(C(F)(F)F)c(F)c(O)c2F)c2cnc(N3CCC(C(=O)O)CC3)nc21 ; system used: Recombinant human HSD17B13 enzyme (Homo sapiens, UniProt Q7Z5P4)
**A:** 6.00 to 7.00

**Q:** Determine reported pIC50 for Cn1nc(-c2cc(O)c(F)c(C(F)(F)F)c2)c2ccc(C3CCN(S(C)(=O)=O)CC3)cc21 ; test system: Recombinant human HSD17B13 enzyme (Homo sapiens, UniProt Q7Z5P4).
**A:** 6.00 to 7.00

**Q:** State, for Recombinant human HSD17B13 enzyme (Homo sapiens, UniProt Q7Z5P4), measured pIC50 of the compound listed here: Cn1nc(-c2cc(C(F)(F)F)c(F)c(O)c2F)c2cnc(N3CCN(S(C)(=O)=O)C4(CCC4)C3)cc21
**A:** > 7.00

**Q:** Provide pIC50, system Recombinant human HSD17B13 enzyme (Homo sapiens, UniProt Q7Z5P4), entry Cn1nc(-c2cc(C(F)(F)F)c(F)c(O)c2F)c2cnc(N3CCCOCC34CC4)cc21
**A:** > 7.00

Ref: patent US20240083861A1
